# tgt: Recombinant human c-KIT kinase (Homo sapiens (Human), UniProt P10721)
# Sequence (P10721 26-976): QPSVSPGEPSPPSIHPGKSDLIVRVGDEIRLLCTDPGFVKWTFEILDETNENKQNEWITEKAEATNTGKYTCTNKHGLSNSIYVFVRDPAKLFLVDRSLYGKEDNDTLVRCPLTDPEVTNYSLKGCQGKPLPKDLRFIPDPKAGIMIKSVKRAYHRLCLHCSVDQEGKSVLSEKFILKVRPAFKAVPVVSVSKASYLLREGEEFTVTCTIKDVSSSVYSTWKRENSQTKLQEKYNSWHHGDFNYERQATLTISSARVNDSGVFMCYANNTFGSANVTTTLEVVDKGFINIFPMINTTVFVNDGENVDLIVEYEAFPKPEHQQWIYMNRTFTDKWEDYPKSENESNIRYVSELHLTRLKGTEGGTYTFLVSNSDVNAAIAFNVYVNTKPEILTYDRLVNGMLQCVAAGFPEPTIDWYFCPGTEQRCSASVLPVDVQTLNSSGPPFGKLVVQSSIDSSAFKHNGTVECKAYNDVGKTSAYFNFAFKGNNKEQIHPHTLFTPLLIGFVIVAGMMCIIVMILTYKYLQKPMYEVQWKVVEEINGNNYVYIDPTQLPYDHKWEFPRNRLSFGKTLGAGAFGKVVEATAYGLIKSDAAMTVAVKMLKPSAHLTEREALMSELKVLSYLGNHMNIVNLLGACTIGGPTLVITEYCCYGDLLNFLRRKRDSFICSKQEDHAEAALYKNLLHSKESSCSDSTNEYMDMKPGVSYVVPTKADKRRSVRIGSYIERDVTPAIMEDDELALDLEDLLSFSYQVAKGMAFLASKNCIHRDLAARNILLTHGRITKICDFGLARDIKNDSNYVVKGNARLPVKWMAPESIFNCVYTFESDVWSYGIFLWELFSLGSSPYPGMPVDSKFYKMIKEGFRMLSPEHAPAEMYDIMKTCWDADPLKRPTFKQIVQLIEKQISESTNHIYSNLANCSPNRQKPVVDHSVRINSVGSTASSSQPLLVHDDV
# assay remarks: c-KIT kinase chemiluminescence assay (ADP-Glo)
# Format: biochemical
# reported conditions: ATP 50 μM
# Experimental: The c-KIT Kinase Enzyme System (V4498) and ADP-Glo™ Kinase Assay kit (V6930) were purchased from Promega (Madison, WI). DMSO (D2650) was purchased from Sigma-Aldrich (Burlington, MA). […] ADP detection with ADP-Glo™ Kinase Assay: After the kinase reaction incubation, 5 μL of ADP-Glo™ reagent was added to all wells. […] Kinase activity was measured as increase in luminescence at RT in an Envision plate reader equipped with 560 nm filters and operating in endpoint mode. […]
Provide the recorded IC50 for the entries that follow.

QUERY: Quick one: IC50 for "Cc1ccc(-c2noc([C@H]3C[C@@H]3F)n2)cc1NC(=O)c1cncn1-c1ccccc1" ?
RESULT: > 1 µM

QUERY: Quick one: IC50 for "Cc1ncc(-c2noc(C3(F)CN(CC(F)F)C3)n2)cc1NC(=O)c1cnn2ccc(N3CC4(C3)CC(O)(C(F)F)C4)cc12" ?
RESULT: 0.1 to 1 µM

QUERY: Quick one: IC50 for "Cc1ccc(-c2noc([C@H]3C[C@@H]3F)n2)cc1NC(=O)c1cnc2cnccc2c1" ?
RESULT: > 1 µM

QUERY: Quick one: IC50 for "Cc1ccc(-c2noc([C@H]3C[C@@H]3F)n2)cc1NC(=O)c1cnn2ccc(-c3cn(CC(C)(C)O)nn3)cc12" ?
RESULT: < 0.1 µM
